# Tested on: A549
# Measurement protocol: A549 toxicity
# Format: cell-based
# Experimental context: Tables 1-3
Measure name: A549 (µg/mL)
# value in µg/mL; strip the unit string

Query: Request the reported A549 associated with O=C(N/N=C/c1ccc(Br)cc1O)c1cccc(F)c1F
Response: 16

Query: Request the reported A549 associated with O=C(N/N=C/c1ccc(Br)cc1O)c1ccc(Br)cc1
Response: 16

Query: Request the reported A549 associated with O=C(N/N=C/c1cc(Br)ccc1O)c1cc(Br)ccc1Br
Response: 16

Query: Request the reported A549 associated with Cc1ccc(O)c(/C=N/NC(=O)c2cc(Br)cc(Br)c2O)c1 [drawing 66]
Response: 4

Query: Request the reported A549 associated with Cc1ccc(O)c(/C=N/NC(=O)c2ccc(Br)cc2Br)c1
Response: 32

Query: Request the reported A549 associated with O=C(N/N=C/c1cc(Cl)cc(Cl)c1O)c1cc(Br)ccc1Br
Response: 32

Query: Request the reported A549 associated with O=C(N/N=C/c1c(O)ccc2ccccc12)c1cc(Br)ccc1Br
Response: 32

Query: Request the reported A549 associated with O=C(N/N=C/c1cc(Cl)ccc1O)c1ccc(Br)cc1Br
Response: 64

Query: Request the reported A549 associated with O=C(N/N=C/c1cc(Cl)ccc1O)c1cccc(F)c1F
Response: 72

Query: Request the reported A549 associated with O=C(N/N=C/c1cc(Br)cc(Br)c1O)c1cnc2ccccc2c1 [drawing 62]
Response: 32

Query: Request the reported A549 associated with Cc1ccc(O)c(/C=N/NC(=O)c2cc(Br)ccc2Br)c1
Response: 32

Query: Request the reported A549 associated with Cc1ccc(O)c(/C=N/NC(=O)c2cc(Br)ccc2O)c1
Response: 16

Query: Request the reported A549 associated with O=C(N/N=C/c1cc(Cl)ccc1O)c1cc(Br)ccc1Br
Response: 59

Query: Request the reported A549 associated with O=C(N/N=C/c1c(O)ccc2ccccc12)c1ccc(Br)cc1Br
Response: 16

###

# System: A549
# Measurement protocol: A549 toxicity
# Format: cell-based
# Experimental context: Tables 1-3
Measure name: A549

Query: Request the reported A549 associated with O=C(N/N=C/c1ccc(Br)cc1O)c1ccc(Br)cc1Br
Response: >32 µg/mL

Query: Request the reported A549 associated with O=C(N/N=C/c1cc(Cl)cc(Cl)c1O)c1ccc(Br)cc1Br
Response: >64 µg/mL

Query: Request the reported A549 associated with O=C(N/N=C/c1cc(Br)ccc1O)c1ccc(Br)cc1Br
Response: >32 µg/mL

Query: Request the reported A549 associated with O=C(N/N=C/c1ccc(Br)cc1O)c1cccc(Br)c1
Response: >32 µg/mL
